Experiment: Cytotoxic test, alamar blue assay
Type: cell-based
Condition details: human, undifferentiated SH-SY5Y neuroblastoma cells, 24 hours exposure, concentration at which respiratory activity decreased to 50%, read-out: IC50 Cytotoxicity
// assign fulfilled if IC50 at 24 h falls strictly below 600 µM, else not fulfilled (ties count as not fulfilled)

>  <Compound>
CC12CC3CC(C)(C1)CC(N)(C3)C2 [Memantine, reference compound]

>  <Assigned label>
fulfilled

$$$$
>  <Compound>
N=C(NCCc1ccc(Cl)c(Cl)c1)NC(=N)NNC(=O)c1nc(Cl)c(N)nc1N [Compound 3]

>  <Assigned label>
fulfilled

$$$$
>  <Compound>
N=C(NCCc1ccc(Cl)cc1)NC(=N)NNC(=O)c1nc(Cl)c(N)nc1N [Compound 2]

>  <Assigned label>
not fulfilled

$$$$
>  <Compound>
N=C(NCCc1ccccc1)NC(=N)NNC(=O)c1nc(Cl)c(N)nc1N [Compound 1]

>  <Assigned label>
not fulfilled

$$$$
>  <Compound>
N=C(N)NC(=O)c1nc(Cl)c(N)nc1N [Amiloride, reference compound]

>  <Assigned label>
fulfilled

$$$$

The values you see were collected from patent US8895564B2.
